# Run description: Toxicity liver stage against HepG2, at 10uM
# Assay type: cell-based
# Design: test concentration 10 uM, cell line HepG2-A16-CD81EGFP
# Condition info: human, HepG2-A16-CD81EGFP cells; read-out: INHIBITION
Entries annotated with measured cytotoxicity at 10 µM
Give a bare numeral; the unit % is implied.

Worked cases, answers included:
| Compound | Unit spec | cytotoxicity at 10 µM |
| --- | --- | --- |
| CC(=O)N1CCC[C@@H](NCc2ccc(F)cc2)[C@@H]1c1ccc(C)s1 | % | -22.1 |
| CC(=O)Nc1ccc(CNCc2ccc(CS(C)(=O)=O)cc2)cc1 | % | 4.67 |
| O=C(Cc1cccc(Cl)c1)Nc1cnccc1SCCCO | % | -7.04 |
| Cc1nc(CN(C)C2CCN(Cc3cccc4cccnc34)C2)no1 (stereo not drawn) | % | -11.5 |
| CCOC(C)c1noc(CN2CCNCC2)n1 (stereo not drawn) | % | 1.03 |
| Cc1ccc(CNCCOc2ccc(S(C)(=O)=O)cc2)cc1 | % | -9.12 |

Switching to the query record.
Consider the compound CCOCC1CN(Cc2cnn(C)c2)Cc2cnn(C)c21 (stereo not drawn) and give its measured cytotoxicity at 10 µM.
-89.6

----------
# Run description: Toxicity liver stage against HepG2, at 10uM
# Type: cell-based
# Parameters: test concentration 10 uM, cell line HepG2-A16-CD81EGFP
# Condition info: human, HepG2-A16-CD81EGFP cells; read-out: INHIBITION
Value kind: cytotoxicity at 10 µM (%)
Give a bare numeral; the unit % is implied.

| Molecule | Unit spec | Value |
| --- | --- | --- |
| Cc1cnn(CCNCc2c(C(C)C)nn(C)c2Cl)c1 | % | -14 |
| CC(C)CCNC(=O)c1c(-n2cnnn2)sc2c1CCCC2 | % | 8.79 |
| CC(C)n1ccc2cc(C(=O)Nc3nc[nH]n3)ccc21 | % | 4.06 |

Consider the molecule CC(NC(=O)c1cc(-c2cccc(Cl)c2)no1)C(=O)N1CCCC1 (stereo unspecified) and give its measured cytotoxicity at 10 µM.
3.59

Consider the molecule c1cc(-c2nnc3sc(CCN4CCCC4)nn23)ccn1 and give its measured cytotoxicity at 10 µM.
-4.31

Consider the molecule Cc1nc2ccccn2c1CN1C[C@@H](CN(C)CCO)[C@@H](CO)C1 and give its measured cytotoxicity at 10 µM.
-11.4

----------
Entries annotated with measured cytotoxicity at 10 µM
# Run description: Toxicity liver stage against HepG2, at 10uM
# Format: cell-based
# Set-up: test concentration 10 uM, cell line HepG2-A16-CD81EGFP
# Condition info: human, HepG2-A16-CD81EGFP cells; read-out: INHIBITION
Give a bare numeral; the unit % is implied.

Worked cases, answers included:
| Compound | Unit spec | cytotoxicity at 10 µM |
| --- | --- | --- |
| COc1cc(N2CC[C@H]3OCC[C@@]3(COc3nccc(C)n3)C2)ncn1 | % | 11.8 |
| Cc1cnc(CCN(C)C(=O)c2cccc(C)c2O)s1 | % | -2.48 |
| Cc1cnnn1Cc1ncn2c1CN(Cc1cccs1)CCC2 | % | 3.58 |

Switching to the query record.
Consider the compound O=C(CN1CCCC1Cn1cncn1)NCCOc1cccc(F)c1 (stereo not drawn) and give its measured cytotoxicity at 10 µM.
-3.24
